- targetSystem: Neutrophil collagenase (Homo sapiens, UniProt P22894)
- Sequence (P22894 whole entry): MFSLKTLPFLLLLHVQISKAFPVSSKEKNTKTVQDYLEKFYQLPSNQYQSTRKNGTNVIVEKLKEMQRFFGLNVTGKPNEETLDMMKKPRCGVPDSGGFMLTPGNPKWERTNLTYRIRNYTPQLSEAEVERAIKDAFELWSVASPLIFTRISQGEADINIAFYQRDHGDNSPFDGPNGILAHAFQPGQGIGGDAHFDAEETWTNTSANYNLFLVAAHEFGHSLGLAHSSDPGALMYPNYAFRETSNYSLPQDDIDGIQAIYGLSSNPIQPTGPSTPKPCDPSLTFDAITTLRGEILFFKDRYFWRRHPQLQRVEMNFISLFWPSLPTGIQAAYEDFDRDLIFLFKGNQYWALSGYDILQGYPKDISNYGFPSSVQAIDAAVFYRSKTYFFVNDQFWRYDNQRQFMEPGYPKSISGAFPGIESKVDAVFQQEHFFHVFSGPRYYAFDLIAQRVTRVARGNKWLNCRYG
- protocolDetails: Inhibition of human recombinant MMP8 using MOCAc-Lys-Pro-Leu-Gly-Leu-A2pr(Dnp)-Ala-Arg-N2 as substrate preincubated for 15 mins followed by substrate addition and measured after 120 mins by fluorescence based assay
readoutName: pIC50
Please keep in mind that pIC50 is minus log10 of the molar concentration; only the number is needed.

Note to self: pIC50 recorded for CC(C)C[C@H](NC(=O)[C@@H]1C[C@H](N)CN1C(=O)CC[C@@H](NS(=O)(=O)c1ccc(NC(=O)c2ccc(C(N)=O)cc2)cc1)C(=O)O)C(=O)N(C)[C@@H](CCC(=O)O)C(=O)NCCCCC(N)=O was 5.74

* * *

- targetSystem: UniProt:P08253
- Sequence (P08253 whole entry): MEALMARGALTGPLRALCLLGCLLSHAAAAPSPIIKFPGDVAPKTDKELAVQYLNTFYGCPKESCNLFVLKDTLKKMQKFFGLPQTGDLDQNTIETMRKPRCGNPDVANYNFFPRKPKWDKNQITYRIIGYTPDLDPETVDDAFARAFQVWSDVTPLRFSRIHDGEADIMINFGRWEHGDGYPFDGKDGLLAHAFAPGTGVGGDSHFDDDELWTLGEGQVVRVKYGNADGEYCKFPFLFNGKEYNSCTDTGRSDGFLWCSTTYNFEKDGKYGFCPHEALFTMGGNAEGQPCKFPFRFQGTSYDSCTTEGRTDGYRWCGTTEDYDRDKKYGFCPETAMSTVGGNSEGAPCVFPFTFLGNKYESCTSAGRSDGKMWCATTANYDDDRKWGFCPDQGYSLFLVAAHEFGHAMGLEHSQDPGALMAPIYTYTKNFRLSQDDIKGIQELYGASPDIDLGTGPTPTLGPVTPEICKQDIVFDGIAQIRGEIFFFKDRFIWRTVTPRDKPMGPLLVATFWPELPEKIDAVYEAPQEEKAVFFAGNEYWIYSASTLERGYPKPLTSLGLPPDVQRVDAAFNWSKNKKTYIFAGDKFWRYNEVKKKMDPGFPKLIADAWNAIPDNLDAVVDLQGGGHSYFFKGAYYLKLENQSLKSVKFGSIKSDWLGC
- protocolDetails: Inhibition of human recombinant MMP2 using MOCAc-Lys-Pro-Leu-Gly-Leu-A2pr(Dnp)-Ala-Arg-N2 as substrate preincubated for 15 mins followed by substrate addition and measured after 120 mins by fluorescence based assay
readoutName: pIC50
Please keep in mind that pIC50 is minus log10 of the molar concentration; only the number is needed.

Note to self: pIC50 recorded for CC(C)C[C@H](NC(=O)[C@@H]1C[C@H](N)CN1C(=O)CC[C@@H](NS(=O)(=O)c1ccc(NC(=O)c2ccc(C(N)=O)cc2)cc1)C(=O)O)C(=O)N(C)[C@@H](CCC(=O)O)C(=O)NCCCCC(N)=O was 9.66

* * *

- protocolDetails: Chemical stability of the compound in phosphate buffer at pH 7.4 assessed as residual rate incubated for 2 weeks by HPLC analysis
- Assay type: physicochemical
- assayContext: read-out: Stability
Square brackets hold non-standard residues; d marks the D form. Peptide text beside a SMILES is read from it. * marks the point of attachment. Benzoyl(4-OPh(4-CONH2)) = NC(=O)c1ccc(Oc2ccc(C(=O)*)cc2)cc1; NMeE = CN[C@@H](CCC(=O)O)C(=O)O; β3hP = O=C(O)C[C@@H]1CCCN1; Dab = NCC[C@H](N)C(=O)O; Ava = NCCCCC(=O)O
Give remaining at 336 h for every item shown.
Numeric answer only, unit % assumed.

Note to self: remaining at 336 h recorded for CC(C)C[C@H](NC(=O)[C@H](CCN)NC(=O)[C@H](CC(=O)O)NC(=O)[C@H](CCC(=O)O)NC(=O)CCCCNC(=O)c1ccc(Oc2ccc(C(N)=O)cc2)cc1)C(=O)N(C)[C@@H](CCC(=O)O)C(=O)N1CCC[C@H]1CC(N)=O ({Benzoyl(4-OPh(4-CONH2))-Ava}-ED[Dab]L[NMeE][β3hP]-NH2) was 89

Note to self: remaining at 336 h recorded for CC(C)C[C@H](NC(=O)[C@@H]1C[C@H](N)CN1C(=O)CC[C@@H](NS(=O)(=O)c1ccc(NC(=O)c2ccc(C(N)=O)cc2)cc1)C(=O)O)C(=O)N(C)[C@@H](CCC(=O)O)C(=O)NCCCCC(N)=O was 99

Note to self: remaining at 336 h recorded for CC[C@H](C)[C@@H](C(=O)NCCCCC(N)=O)N(C)C(=O)[C@H](CC(C)C)NC(=O)[C@H](CCN)NC(=O)CC[C@@H](NS(=O)(=O)c1ccc(NC(=O)c2ccc(C(N)=O)cc2)cc1)C(=O)O was 88.8

* * *

- targetSystem: UniProt P39900
- Sequence (P39900 whole entry): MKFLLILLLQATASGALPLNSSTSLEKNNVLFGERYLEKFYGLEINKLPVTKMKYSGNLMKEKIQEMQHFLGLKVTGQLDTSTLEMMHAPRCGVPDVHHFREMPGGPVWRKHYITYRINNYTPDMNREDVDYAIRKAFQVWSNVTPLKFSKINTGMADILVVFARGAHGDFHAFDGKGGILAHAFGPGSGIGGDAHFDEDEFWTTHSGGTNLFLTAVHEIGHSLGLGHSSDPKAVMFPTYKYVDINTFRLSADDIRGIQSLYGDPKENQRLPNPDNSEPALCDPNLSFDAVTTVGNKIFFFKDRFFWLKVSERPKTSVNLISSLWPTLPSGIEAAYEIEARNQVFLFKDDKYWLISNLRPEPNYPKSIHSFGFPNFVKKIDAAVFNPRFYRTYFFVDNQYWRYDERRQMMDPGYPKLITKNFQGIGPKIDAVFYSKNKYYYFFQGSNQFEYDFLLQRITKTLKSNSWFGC
- protocolDetails: Inhibition of human recombinant MMP12 using MOCAc-Lys-Pro-Leu-Gly-Leu-A2pr(Dnp)-Ala-Arg-N2 as substrate preincubated for 10 to 15 mins followed by substrate addition and measured after 60 to 120 mins by fluorescence based assay
- assayContext: read-out: IC50
pIC50: −log10 of the molar value.
# cutoff 7 applies to pIC50; >= gives y, < gives n

Is pIC50 at least 7? Consider CC(C)C[C@H](NC(=O)[C@@H]1CCCN1C(=O)CC[C@@H](NS(=O)(=O)c1ccc(NC(=O)c2ccc(C(N)=O)cc2)cc1)C(=O)O)C(=O)N(C)[C@@H](CCC(=O)O)C(=O)NCCCCC(N)=O y

Is pIC50 at least 7? Consider CC(C)C[C@H](NC(=O)[C@@H]1C[C@H](N)CN1C(=O)CC[C@@H](NS(=O)(=O)c1ccc(NC(=O)c2ccc(C(N)=O)cc2)cc1)C(=O)O)C(=O)N(C)[C@@H](CCC(=O)O)C(=O)NCCCCC(N)=O n

Is pIC50 at least 7? Consider CC[C@H](C)[C@@H](C(=O)N1CCC[C@H]1CC(N)=O)N(C)C(=O)[C@H](CC(C)C)NC(=O)[C@H](CCN)NC(=O)CC[C@@H](NS(=O)(=O)c1ccc(NC(=O)c2ccc(C(N)=O)cc2)cc1)C(=O)O n

Is pIC50 at least 7? Consider CC[C@H](C)[C@@H](C(=O)NCCC(N)=O)N(C)C(=O)[C@H](CC(C)C)NC(=O)[C@H](CCN)NC(=O)CC[C@@H](NS(=O)(=O)c1ccc(NC(=O)c2ccc(Cl)cc2)cc1)C(=O)O n
